Structures can show the parent of a compound that is named as a salt.
measurement.type: melting point

[
  {
    "compound": "CN1C(=O)c2cc(C(=O)O)cn2-c2cc(-c3ccc(F)nc3)ccc2C12CC2 [Example 177]",
    "melting point": "> 250 °C"
  },
  {
    "compound": "Cc1ncccc1-c1ccc2c(c1)-n1cc(-c3cc[nH]n3)cc1C(=O)N(C)C21CC1 (as salt: hydrochloride) [Example 146]",
    "melting point": "240 to 250 °C"
  },
  {
    "compound": "CN1C(=O)c2cc(-c3ccccc3)cn2-c2cc(-c3cccnc3)ccc2C12CC2 (as salt: hydrochloride) [Example 93]",
    "melting point": "218 to 222 °C"
  },
  {
    "compound": "Cc1ncccc1-c1ccc2c(c1)-n1cc(-c3nnco3)cc1C(=O)N(C)C21CC1 [Example 185]",
    "melting point": "> 250 °C"
  },
  {
    "compound": "Cc1ccc(-c2ccc3c(c2)-n2cc(-c4nccs4)cc2C(=O)N(C)C32CC2)cn1 (as salt: hydrochloride) [Example 158]",
    "melting point": "228 to 239 °C"
  }
]

Problem: Could you share which melting point value was measured for Cc1cc(-c2ccc3c(c2)-n2cccc2C(=O)N(C)C32CC2)ccn1 (as salt: hydrochloride) [Example 26] ?
Solution: 183 to 193 °C

Problem: Could you share which melting point value was measured for Cc1ccc(-c2ccc3c(c2)-n2nc(-c4ccccc4)cc2C(=O)N(C)C32CC2)c(C)n1 (as salt: hydrochloride) [Example 126] ?
Solution: > 250 °C

Problem: Could you share which melting point value was measured for CN1C(=O)c2cc(-c3ccccc3)cn2-c2cc(-c3ccc(F)cn3)ccc2C12CC2 [Example 110] ?
Solution: 140 to 151 °C

Problem: Could you share which melting point value was measured for CN1C(=O)c2cc(-c3ccccc3)nn2-c2cc(-c3cccc(C(=O)O)c3)ccc2C12CC2 [Example 133] ?
Solution: 211 to 217 °C

Problem: Could you share which melting point value was measured for CN1C(=O)c2cc(-c3ccccc3)nn2-c2cc(-c3cnco3)ccc2C12CC2 [Example 132] ?
Solution: 214 to 220 °C

Problem: Could you share which melting point value was measured for Cc1nccnc1-c1ccc2c(c1)-n1cccc1C(=O)N(C)C21CC1 (as salt: hydrochloride) [Example 58] ?
Solution: 123 to 129 °C

Problem: Could you share which melting point value was measured for Cc1ncccc1-c1ccc2c(c1)-n1cc(C3CC3)cc1C(=O)N(C)C21CC1 (as salt: hydrochloride) [Example 155] ?
Solution: 190 to 198 °C

Problem: Could you share which melting point value was measured for CCN1Cc2ccc(-c3cccnc3C)cc2-n2cc(-c3ccccc3)nc2C1=O (as salt: hydrochloride) [Example 167] ?
Solution: 200 to 220 °C

Problem: Could you share which melting point value was measured for Cc1cc(-c2ccc3c(c2)-n2nc(-c4ccccc4)cc2C(=O)N(C)C32CC2)cc(C)n1 (as salt: hydrochloride) [Example 121] ?
Solution: > 250 °C

Problem: Could you share which melting point value was measured for [2H]C([2H])([2H])N1C(=O)c2cccn2-c2cc(-c3ccc(F)cn3)ccc2C12CC2 [Example 64] ?
Solution: 138 to 142 °C

----------
Structures can show the parent of a compound that is named as a salt.
// reported melting point for each item listed

Worked cases, melting point given:
[
  {
    "compound": "CN1C(=O)c2cccn2-c2cc(-c3ccnn3C)ccc2C12CC2",
    "measured.result": "214 to 220 °C"
  },
  {
    "compound": "CN1C(=O)c2cc(-c3ccccc3)cn2-c2cc(-c3cncnc3)ccc2C12CC2 (as salt: hydrochloride)",
    "measured.result": "168 to 173 °C"
  },
  {
    "compound": "CN1C(=O)c2cccn2-c2cc(-c3ncccc3F)ccc2C12CC2",
    "measured.result": "102 to 118 °C"
  },
  {
    "compound": "Cc1ccc(-c2ccc3c(c2)-n2cc(-c4ccccc4)cc2C(=O)N(C)C32CC2)c(C)n1 (as salt: hydrochloride)",
    "measured.result": "206 to 214 °C"
  },
  {
    "compound": "Cc1ncccc1-c1ccc2c(c1)-n1ccnc1C(=O)N(C)C2 (as salt: hydrochloride)",
    "measured.result": "210 to 230 °C"
  }
]

Problem: Could you share which melting point value was measured for Cc1ccc(-c2ccc3c(c2)-n2cccc2C(=O)N(C)C32CC2)cn1 (as salt: hydrochloride) ?
Solution: 205 to 215 °C

Problem: Could you share which melting point value was measured for CN1C(=O)c2cc(-c3ccccc3)nn2-c2cc(N3CCCC3)ccc2C12CC2 ?
Solution: 226 to 230 °C

Problem: Could you share which melting point value was measured for CN1C(=O)c2cc(-c3ccccc3)cn2-c2cc(-c3cccc(S(=O)(=O)N(C)C)c3)ccc2C12CC2 ?
Solution: 198 to 205 °C

Problem: Could you share which melting point value was measured for Cc1cc(-c2ccc3c(c2)-n2cc(-c4ccccc4)cc2C(=O)N(C)C32CC2)cc(C)n1 (as salt: hydrochloride) ?
Solution: 227 to 234 °C

Problem: Could you share which melting point value was measured for CN1C(=O)c2cccn2-c2cc(-c3cccnc3C3CC3)ccc2C12CC2 (as salt: hydrochloride) ?
Solution: 160 to 180 °C

Problem: Could you share which melting point value was measured for CN1C(=O)c2cccn2-c2cc(-c3ccc(F)cn3)ccc2C12CC2 ?
Solution: 148 to 156 °C

Problem: Could you share which melting point value was measured for CN1C(=O)c2cccn2-c2ccc(N3CCOCC3)cc2C12CC2 ?
Solution: 140 to 146 °C

Problem: Could you share which melting point value was measured for CN1C(=O)c2cccn2-c2cc(-c3ccc(F)nc3)c(F)cc2C12CC2 ?
Solution: 185 to 192 °C

Problem: Could you share which melting point value was measured for CCc1ccc(-c2ccc3c(c2)-n2cc(-c4ccccc4)cc2C(=O)N(C)C32CC2)cn1 (as salt: hydrochloride) ?
Solution: 209 to 212 °C

Problem: Could you share which melting point value was measured for Cc1cc(-c2ccc3c(c2)-n2cc(-c4ccccc4)cc2C(=O)N(C)C32CC2)ccn1 (as salt: hydrochloride) ?
Solution: 225 to 235 °C

Problem: Could you share which melting point value was measured for Cc1ncccc1-c1cc(F)c2c(c1)-n1cccc1C(=O)N(C)C21CC1 (as salt: hydrochloride) ?
Solution: 174 to 188 °C

Problem: Could you share which melting point value was measured for CN1C(=O)c2cc(-c3ccccc3)nn2-c2cc(-c3cccc(S(=O)(=O)N(C)C)c3)ccc2C12CC2 ?
Solution: 182 to 189 °C

----------
# tested.on: human mGluR3 (hmGluR3) (Homo sapiens, UniProt Q14832)
# Sequence (Q14832 23-879): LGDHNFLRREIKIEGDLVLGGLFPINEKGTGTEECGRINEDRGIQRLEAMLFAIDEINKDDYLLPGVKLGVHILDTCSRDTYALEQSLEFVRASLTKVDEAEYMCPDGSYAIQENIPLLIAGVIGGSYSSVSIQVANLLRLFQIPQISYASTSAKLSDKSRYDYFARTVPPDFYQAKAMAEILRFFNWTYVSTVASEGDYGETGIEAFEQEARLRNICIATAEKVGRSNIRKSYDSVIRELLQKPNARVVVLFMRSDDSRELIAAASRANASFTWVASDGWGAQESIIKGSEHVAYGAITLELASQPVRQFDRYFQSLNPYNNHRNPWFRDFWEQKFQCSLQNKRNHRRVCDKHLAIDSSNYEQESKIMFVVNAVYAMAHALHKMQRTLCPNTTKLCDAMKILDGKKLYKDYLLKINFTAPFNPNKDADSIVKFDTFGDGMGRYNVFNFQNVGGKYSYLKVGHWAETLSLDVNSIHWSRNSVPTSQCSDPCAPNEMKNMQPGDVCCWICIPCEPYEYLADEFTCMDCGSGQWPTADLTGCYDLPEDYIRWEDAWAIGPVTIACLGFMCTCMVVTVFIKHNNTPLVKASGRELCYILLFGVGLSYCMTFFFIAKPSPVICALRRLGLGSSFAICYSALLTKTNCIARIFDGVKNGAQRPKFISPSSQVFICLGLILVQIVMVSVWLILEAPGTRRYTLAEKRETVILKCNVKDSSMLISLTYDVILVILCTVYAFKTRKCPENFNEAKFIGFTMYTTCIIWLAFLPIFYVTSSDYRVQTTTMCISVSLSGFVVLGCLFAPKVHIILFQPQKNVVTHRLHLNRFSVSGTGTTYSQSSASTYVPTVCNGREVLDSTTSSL
# protocol.description: Human mGluR3 positive allosteric modulator evaluation using Ca++ functional assay
# stated.conditions: hmGluR3 transiently over-expressed in HEK-293 cells; stimulated by EC50 glutamate concentration; intracellular Ca2+ (Fluo4AM, FLIPR Tetra)
pEC50: −log10 of the molar value.
measurement.type: pEC50

[
  {
    "compound.string": "Cc1ncccc1-c1ccc2c(c1)-n1cc(-c3ccccc3)nc1C(=O)N(C)C21CC1",
    "pEC50": "> 7.00"
  },
  {
    "compound.string": "Cc1cnccc1-c1ccc2c(c1)-n1cccc1C(=O)N(C)C21CC1",
    "pEC50": "6.00 to 7.00"
  },
  {
    "compound.string": "CN1C(=O)c2cccn2-c2cc(-c3cccc(-c4nnn[nH]4)c3)ccc2C12CC2",
    "pEC50": "6.00 to 7.00"
  },
  {
    "compound.string": "Cc1ncccc1-c1ccc2c(c1)-n1cccc1C(=O)N(C)C2(C)C",
    "pEC50": "6.00 to 7.00"
  }
]

Problem: Could you share which pEC50 value was measured for CN1C(=O)c2cccn2-c2cc(-c3cccc(F)n3)ccc2C12CC2 ?
Solution: 6.00 to 7.00

Problem: Could you share which pEC50 value was measured for Cc1ncccc1-c1ccc2c(c1)-n1cccc1C(=O)N(C)C21CC1 ?
Solution: 6.00 to 7.00

Problem: Could you share which pEC50 value was measured for Cc1ncccc1-c1ccc2c(c1)-n1cc(-c3cnc[nH]3)cc1C(=O)N(C)C21CC1 ?
Solution: > 7.00

----------
# tested.on: human mGluR3 (hmGluR3) (Homo sapiens)
# protocol.description: Human mGluR3 positive allosteric modulator evaluation using Ca++ functional assay
# stated.conditions: hmGluR3 transiently over-expressed in HEK-293 cells; stimulated by EC50 glutamate concentration; intracellular Ca2+ (Fluo4AM, FLIPR Tetra)
pEC50: −log10 of the molar value.
measurement.type: pEC50

Worked cases, pEC50 given:
[
  {
    "compound": "Cc1cccc2c1C1(CC1)N(C)C(=O)c1cccn1-2 [Example 89]",
    "pEC50": "< 6.00"
  },
  {
    "compound": "CN1C(=O)c2cccn2-c2cc(Br)ccc2C12CC2 [Example 1]",
    "pEC50": "6.00 to 7.00"
  },
  {
    "compound": "CN1C(=O)c2cc(-c3ccccc3)nn2-c2cc(-c3cccc(Cl)c3)ccc2C12CC2 [Example 130]",
    "pEC50": "6.00 to 7.00"
  },
  {
    "compound": "CN1C(=O)c2ccc(-c3ccnn3C)n2-c2cc(-c3ccc(F)cn3)ccc2C12CC2 [Example 86]",
    "pEC50": "< 6.00"
  },
  {
    "compound": "Cc1ncncc1-c1ccc2c(c1)-n1cccc1C(=O)N(C)C21CC1 [Example 59]",
    "pEC50": "< 6.00"
  },
  {
    "compound": "CN1C(=O)c2cc(-c3ccccc3)cn2-c2cc(-c3ccc(N)nc3)ccc2C12CC2 [Example 96]",
    "pEC50": "6.00 to 7.00"
  }
]

Problem: Could you share which pEC50 value was measured for Cc1ccc(-c2ccc3c(c2)-n2nc(-c4ccccc4)cc2C(=O)N(C)C32CC2)c(C)n1 [Example 126] ?
Solution: > 7.00

Problem: Could you share which pEC50 value was measured for CN1C(=O)c2cc(-c3ccccc3)cn2-c2cc(-c3ccc(C#N)nc3)ccc2C12CC2 [Example 117] ?
Solution: 6.00 to 7.00
